# credit: patent US20150299143A1

biological target: β5c (chymotrypsin-like activity) (Homo sapiens, UniProt P20618+P28074); construct: protease activity associated with the proteasome complex in cultured cells; endogenous in cells; host or cells: Ramos cells; assay: Cell-Based Proteasome subunit activity/selectivity assay, β5c, substrate (WLA)2Rh110; details: Ramos cells; substrate (WLA)2Rh110 (β5c); highest concentration tested 20 μM; read-out: Ic50:ramos:rh110-(wla)2
pIC50: −log10 of the molar value.
measuredAttribute: pIC50

molecule	result
CCc1ccc(C(C#N)NC(=O)c2cn(CCNC(=O)c3ccc(Cl)cc3F)nn2)cc1 (stereo not shown)	4.79
COc1ccc(C(=O)NCCn2cc(C(=O)NC(C#N)c3ccc4c(c3)OCO4)nn2)c(OC)c1OC (stereo not shown)	≤ 4.70
COc1ccc(C(=O)NCCn2cc(C(=O)NC(C#N)c3ccc(Br)cc3)nn2)c(OC)c1OC (stereo not shown)	≤ 4.70
CCc1ccc(C(C#N)NC(=O)c2cn(CCNC(=O)c3ccc(Oc4ccc(Cl)cc4)cn3)nn2)cc1 (stereo not shown)	5.21
COc1cc(C(F)(F)F)ccc1C(=O)NCCn1cnc(C(=O)NC(C#N)c2ccc(Br)cc2)c1 (stereo not shown)	≤ 4.70
CCc1ccc(C(C#N)NC(=O)c2cn(CCN3Cc4ccccc4C3=O)nn2)cc1 (stereo not shown)	4.79
COc1ccc(C(=O)NCCn2cc(C(=O)NC(C#N)c3ccc(OCc4ccccc4)cc3)nn2)c(OC)c1OC (stereo not shown)	5.08
CCc1ccc(C(C#N)NC(=O)c2cn(CC/N=C(\SC)c3ccc(OC)c(OC)c3OC)nn2)cc1 (stereo not shown)	5.07
CCc1ccc(C(C#N)NC(=O)c2cn(CCNC(=O)c3ccc(S(C)(=O)=O)cc3Cl)nn2)cc1 (stereo not shown)	≤ 4.70
CCOC(=O)[C@H](CCc1ccccc1)NC(=O)c1cn(CCNC(=O)c2ccc(C(F)(F)F)cc2F)nn1	≤ 4.70
CCc1ccc(C(C#N)NC(=O)c2cn(CCNC(=O)c3cccc(-c4ccccc4)n3)nn2)cc1 (stereo not shown)	5.11
CCc1ccc(C(C#N)NC(=O)c2cn(CCNC(=O)c3cc(Cl)ccn3)nn2)cc1 (stereo not shown)	≤ 4.70
CCc1ccc(C(C#N)NC(=O)c2cn(CCNC(=O)c3cc(C(F)(F)F)ccc3F)nn2)cc1 (stereo not shown)	≤ 4.70
COc1ccc(C(=O)NCCn2cc(C(=O)NC(C#N)c3ccc(C(C)C)cc3)nn2)c(OC)c1OC (stereo not shown)	≤ 4.70
CCc1ccc(C(C#N)NC(=O)c2cn(CCNC(=O)c3ccc(OC(F)(F)F)cc3OC)nn2)cc1 (stereo not shown)	5.00
COc1ccc(C(=O)NCCn2cc(C(=O)NC(C#N)c3ccc(OC(F)(F)F)cc3)nn2)c(OC)c1OC (stereo not shown)	≤ 4.70
N#CC(NC(=O)c1cn(CCNC(=O)c2ccc(C(F)(F)F)cc2F)nn1)c1ccc(C2CC2)cc1 (stereo not shown)	≤ 4.70
COc1ccc(C(=O)NCCn2cc(C(=O)NC(C#N)c3cccc(SC)c3)nn2)c(OC)c1OC (stereo not shown)	≤ 4.70
CCc1ccc(C(C#N)NC(=O)c2cn(CCNC(=O)c3cccc4c3OCC4)nn2)cc1 (stereo not shown)	≤ 4.70
Cc1ccc(C(=O)NCCn2cc(C(=O)NC(C#N)c3ccc(C(F)(F)F)cc3)nn2)c(F)c1 (stereo not shown)	4.70
COc1ccc(C(=O)NCCn2cc(C(=O)NC(C#N)c3ccc(SC)cc3)nn2)c(OC)c1OC (stereo not shown)	≤ 4.70
CCc1ccc(C(C#N)NC(=O)c2cn(CCNC(=O)c3ccc(Cl)cc3OC)nn2)cc1 (stereo not shown)	≤ 4.70
CCc1ccc(C(C#N)NC(=O)c2cn(CCNC(=O)c3ccc(C)nc3OC)nn2)cc1 (stereo not shown)	≤ 4.70
CCc1ccc(C(C#N)NC(=O)c2cn(CCNC(=O)c3ccc(F)cc3OC)nn2)cc1 (stereo not shown)	≤ 4.70
CCc1ccc(C(C#N)NC(=O)c2cn(CCNC(=O)c3cccc(OC)c3OC)nn2)cc1 (stereo not shown)	≤ 4.70
CCc1ccc(C(C#N)NC(=O)c2cn(CCNC(=O)c3cncc(Br)c3OC)nn2)cc1 (stereo not shown)	5.17
CCc1ccc(C(C#N)NC(=O)c2cn(CCNC(=O)c3ccc(C(F)(F)F)cc3F)cn2)cc1 (stereo not shown)	≤ 4.70
CCc1ccc(C(C#N)NC(=O)c2cn(CCNC(=O)c3cc(Cl)cc(C)n3)nn2)cc1 (stereo not shown)	≤ 4.70
CCOC(=O)[C@H](CCc1ccccc1)NC(=O)c1cn(CCNC(=O)c2ccc(OC)c(OC)c2OC)nn1	≤ 4.70
CCc1ccc(C(C#N)NC(=O)c2cn(CCNC(=O)c3cccc4c3OCCO4)nn2)cc1 (stereo not shown)	≤ 4.70
COc1ccc(C(=O)NCCn2cc(C(=O)NCc3ccc(SC)cc3)nn2)c(OC)c1OC	≤ 4.70
